test system: HCV pseudoparticles (genotype 1a HCV E1 and E2 envelope, H77C isolate); test: HCV pseudoparticle infection assay (luciferase reporter, entry into Huh7 cells); type: cell-based, HCV genotype 1a; details: Hepatitis C virus, Huh-7, 48 h, read-out: EC50 (1a, nM), genotype 1a HCV pseudoparticles, Huh7 cells, luciferase 2 days after infection, average of duplicates
yes if EC50 is below 1 nM. no if not; exact matches included in no.

- compound: "CCOC(=O)[C@H](CCNc1c(NC2CCCCCC2)c(=O)c1=O)NC(=O)c1ccc(Nc2nc(NC3(c4ccc(Cl)cc4)CC3)nc(OCC(F)(F)F)n2)cc1 [Compound 1021]"
  assigned_label: "no"
- compound: "O=C(N[C@@H](CCNc1c(NCC2(Cn3ccnc3)CC2)c(=O)c1=O)C(=O)O)c1ccc(Nc2nc(NC3(c4ccc(Cl)cc4)CC3)nc(OCC(F)(F)F)n2)cc1 [Compound 1015]"
  assigned_label: "no"
- compound: "CC(C)(CNC(=O)c1ccc(Nc2nc(NC3(c4ccc(Cl)cc4)CC3)nc(OCC(F)(F)F)n2)cc1)CNc1c(NCc2ccc(F)cc2F)c(=O)c1=O [Compound 1008]"
  assigned_label: "yes"
- compound: "COC(=O)[C@H](CNc1c(OC)c(=O)c1=O)NC(=O)c1ccc(Nc2nc(NC3(c4ccc(Cl)cc4)CC3)nc(OCC(F)(F)F)n2)cc1 [Compound 1001]"
  assigned_label: "no"
- compound: "COC(=O)[C@H](CNc1c(O)c(=O)c1=O)NC(=O)c1ccc(Nc2nc(NC3(c4ccc(Cl)cc4)CC3)nc(OCC(F)(F)F)n2)cc1 [Compound 1003]"
  assigned_label: "no"
- compound: "CC(C)(CNC(=O)c1ccc(Nc2nc(NC3(c4ccc(Cl)cc4)CC3)nc(OCC(F)(F)F)n2)cc1)CNc1c(O)c(=O)c1=O [Compound 1006]"
  assigned_label: "yes"
- compound: "O=C(N[C@@H](CCNc1c(NCC2CC2)c(=O)c1=O)C(=O)NCC1CC1)c1ccc(Nc2nc(NC3(c4ccc(Cl)cc4)CC3)nc(OCC(F)(F)F)n2)cc1 [Compound 1011]"
  assigned_label: "no"
